# tgt: human CDK4 and genetically truncated (1-264) cyclin D3 (Homo sapiens)
# Sequence (P11802 whole entry, the tested form may be a part): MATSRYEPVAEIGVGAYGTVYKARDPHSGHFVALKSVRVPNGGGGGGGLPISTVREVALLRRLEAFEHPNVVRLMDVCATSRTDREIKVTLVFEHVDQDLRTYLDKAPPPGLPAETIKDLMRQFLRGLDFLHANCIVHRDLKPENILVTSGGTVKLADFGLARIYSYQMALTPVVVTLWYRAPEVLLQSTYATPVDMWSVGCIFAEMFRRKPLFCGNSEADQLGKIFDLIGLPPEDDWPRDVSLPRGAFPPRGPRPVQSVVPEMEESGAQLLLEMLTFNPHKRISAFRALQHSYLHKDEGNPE
# Sequence (P30281 1-264 partner): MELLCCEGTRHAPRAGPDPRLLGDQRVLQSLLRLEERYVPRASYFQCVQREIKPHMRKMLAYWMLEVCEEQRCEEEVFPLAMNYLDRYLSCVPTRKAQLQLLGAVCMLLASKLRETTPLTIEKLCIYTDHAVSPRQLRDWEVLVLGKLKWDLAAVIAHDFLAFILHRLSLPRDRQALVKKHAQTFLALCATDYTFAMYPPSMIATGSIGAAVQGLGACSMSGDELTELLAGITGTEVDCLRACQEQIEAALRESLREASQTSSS
# procedure.text: Inhibition of CDK4/Cyclin D Retinoblastoma Kinase Activity
# Assay type: biochemical
# reported.conditions: 0.03 μM compound; Table 3
Consider the following molecules and their measured CDK4 % Inhibition at 0.03 μM readings.
Just the number in %, nothing appended.

| molecule | tgt | uom | measured.result |
| --- | --- | --- | --- |
| Nc1nc(NC2CCN(S(=O)(=O)c3ccc(O)c(C(=O)O)c3)CC2)sc1C(=O)c1c(F)cccc1F | human CDK4 and genetically truncated (1-264) cyclin D3 (Homo sapiens) | % | 15 |
| N#Cc1ccc(S(=O)(=O)N2CCC(Nc3nc(N)c(C(=O)c4c(F)cccc4F)s3)CC2)cc1 | human CDK4 and genetically truncated (1-264) cyclin D3 (Homo sapiens) | % | 82 |
| CC(C)c1ccc(S(=O)(=O)N2CCC(Nc3nc(N)c(C(=O)c4c(F)cccc4F)s3)CC2)cc1 | human CDK4 and genetically truncated (1-264) cyclin D3 (Homo sapiens) | % | 50 |
| COC(=O)c1csc(S(=O)(=O)N2CCC(Nc3nc(N)c(C(=O)c4c(F)cccc4F)s3)CC2)c1OC | human CDK4 and genetically truncated (1-264) cyclin D3 (Homo sapiens) | % | 60 |
| Nc1nc(NC2CCN(S(=O)(=O)c3ccc(Cl)c4nonc34)CC2)sc1C(=O)c1c(F)cccc1F | human CDK4 and genetically truncated (1-264) cyclin D3 (Homo sapiens) | % | 79 |
| Nc1nc(NC2CCN(S(=O)(=O)c3cc(S(=O)(=O)c4ccccc4)cs3)CC2)sc1C(=O)c1c(F)cccc1F | human CDK4 and genetically truncated (1-264) cyclin D3 (Homo sapiens) | % | 66 |
| Nc1nc(NC2CCN(S(=O)(=O)c3ccc(CNC(=O)c4ccc(Cl)cc4)s3)CC2)sc1C(=O)c1c(F)cccc1F | human CDK4 and genetically truncated (1-264) cyclin D3 (Homo sapiens) | % | 57 |
| [N-]=[N+]=C1C=C(S(=O)(=O)N2CCC(Nc3nc(N)c(C(=O)c4c(F)cccc4F)s3)CC2)c2ccccc2C1=O | human CDK4 and genetically truncated (1-264) cyclin D3 (Homo sapiens) | % | 25 |
| CC(C)c1cc(C(C)C)c(S(=O)(=O)N2CCC(Nc3nc(N)c(C(=O)c4c(F)cccc4F)s3)CC2)c(C(C)C)c1 | human CDK4 and genetically truncated (1-264) cyclin D3 (Homo sapiens) | % | 46 |
| CCCCOc1ccc(C(C)(C)CC(C)(C)C)cc1S(=O)(=O)N1CCC(Nc2nc(N)c(C(=O)c3c(F)cccc3F)s2)CC1 | human CDK4 and genetically truncated (1-264) cyclin D3 (Homo sapiens) | % | 1 |

# returns recorded CDK4 % Inhibition at 0.03 μM (system: human CDK4 and genetically truncated (1-264) cyclin D3 (Homo sapiens)) for `Nc1nc(NC2CCN(S(=O)(=O)c3cccs3)CC2)sc1C(=O)c1c(F)cccc1F`
70

Again, but for `Nc1nc(NC2CCN(S(=O)(=O)c3ccc(Cl)cc3)CC2)sc1C(=O)c1c(F)cccc1F`
67

Again, but for `Nc1nc(NC2CCN(S(=O)(=O)c3cc(Cl)sc3Cl)CC2)sc1C(=O)c1c(F)cccc1F`
47

Again, but for `Nc1nc(NC2CCN(S(=O)(=O)c3ccc(C(F)(F)F)cc3)CC2)sc1C(=O)c1c(F)cccc1F`
59

Again, but for `Cn1nc(-c2ccc(S(=O)(=O)N3CCC(Nc4nc(N)c(C(=O)c5c(F)cccc5F)s4)CC3)s2)cc1C(F)(F)F`
62

Again, but for `Nc1nc(NC2CCN(S(=O)(=O)c3ccccc3)CC2)sc1C(=O)c1c(F)cccc1F`
72

* * *

# Test system: HCT-116 cell line
# procedure.text: Inhibition of cell growth, tetrazolium salt (MTT) assay
# Assay type: cell-based
# reported.conditions: Homo sapiens, HCT-116, 120 h, first HCT-116 column (c4); MTT, three to five days; read-out: HCT-116 IC50
# Description: Inhibition of Cell Growth: Assessment of Cytotoxicity: Inhibition of cell growth was measured using the tetrazolium salt assay, which is based on the ability of viable cells to reduce 3-(4,5-dimethylthiazol-2-yl)-2,5-[2H]-diphenyltetrazolium bromide (MTT) to formazan (Mossman, Journal of Immunological Methods, vol. 65 (1983), pp. 55-58). The water-insoluble purple formazan product was then detected spectrophotometrically. […]
property.measured: IC50 (µM)
Just the number in µM, nothing appended.

Reference set, count: 4
| compound | uom | IC50 |
| --- | --- | --- |
| CC(=O)Nc1ccc(S(=O)(=O)N2CCC(Nc3nc(N)c(C(=O)c4c(F)cccc4F)s3)CC2)cc1 | µM | 0.5 |
| CN(C)c1ccc(S(=O)(=O)N2CCC(Nc3nc(N)c(C(=O)c4c(F)cccc4F)s3)CC2)cn1 | µM | 0.048 |
| CN1CCC[C@@H](COc2ccc(S(=O)(=O)N3CCC(Nc4nc(N)c(C(=O)c5c(F)cccc5F)s4)CC3)cn2)C1 (stereo in doubt) | µM | 0.048 |
| COC(=O)CCc1ccc(S(=O)(=O)N2CCC(Nc3nc(N)c(C(=O)c4c(F)cccc4F)s3)CC2)cc1 | µM | 0.79 |

From here, focus on the item given below.
# returns recorded IC50 (system: HCT-116 cell line) for `Nc1nc(NC2CCN(S(=O)(=O)c3cccnc3)CC2)sc1C(=O)c1c(F)cccc1F`
0.13

* * *

# tgt: human CDK4 and genetically truncated (1-264) cyclin D3 (Homo sapiens)
# procedure.text: Inhibition of CDK4/Cyclin D Retinoblastoma Kinase Activity
# reported.conditions: apparent Ki, CDK4/truncated cyclin D3, Rb fragment substrate, 25 μM ATP
Consider the following compounds and their measured pKi readings.
Scale for pKi: -log10 of concentration given in mol/L; no unit attached.

| record.smiles | tgt | pKi |
| --- | --- | --- |
| Nc1nc(NC2CCN(S(=O)(=O)c3cnc(Cl)nc3)CC2)sc1C(=O)c1c(F)cccc1F | human CDK4 and genetically truncated (1-264) cyclin D3 (Homo sapiens) | 9.16 |
| Cc1cccc(CNCCS(=O)(=O)N2CCC(Nc3nc(N)c(C(=O)c4c(F)cccc4F)s3)CC2)c1 | human CDK4 and genetically truncated (1-264) cyclin D3 (Homo sapiens) | 8.72 |

From here, focus on the item given below.
Would you mind telling me what pKi value was observed for `Nc1nc(NC2CCN(S(=O)(=O)CCCN3CCCC3)CC2)sc1C(=O)c1c(F)cccc1F` ?
8.57

* * *

# tgt: CDK2/Cyclin A (Homo sapiens, UniProt P24941)
# procedure.text: Inhibition of CDK2/Cyclin A Retinoblastoma Kinase Activity
# reported.conditions: apparent Ki, CDK2/proteolyzed cyclin A, Rb fragment substrate, 25 μM ATP
Counter-ions that a name gives are not always drawn.
Consider the following compounds and their measured log10(Ki) readings.
Values reflect log10 of reported Ki (nM).

Reference set, count: 10
| compound | log10(Ki) |
| --- | --- |
| CN(C)CCCc1ccc(S(=O)(=O)N2CCC(Nc3nc(N)c(C(=O)c4c(F)cccc4F)s3)CC2)cc1 | 0.08 |
| CN(C)CCCOc1ccc(S(=O)(=O)N2CCC(Nc3nc(N)c(C(=O)c4c(F)cccc4F)s3)CC2)cn1 [Example H15, Hydrochloride] | -0.19 |
| Cc1ccc(C(=O)/C=C/C(=O)N2CCC(Nc3nc(N)c(C(=O)c4c(F)cccc4F)s3)CC2)cc1 | 2.71 |
| CN1CCC[C@@H](Oc2ccc(S(=O)(=O)N3CCC(Nc4nc(N)c(C(=O)c5c(F)cccc5F)s4)CC3)cn2)C1 [Example H26, Hydrochloride] | -0.43 |
| Cc1cccc(CNCCCS(=O)(=O)N2CCC(Nc3nc(N)c(C(=O)c4c(F)cccc4F)s3)CC2)c1 | 0.60 |
| Cc1ccc(C(=O)N2CCC(Nc3nc(N)c(C(=O)c4c(F)cccc4F)s3)CC2)cc1C | 2.23 |
| Nc1nc(NC2CCN(S(=O)(=O)CCCN3CCC4CCCCC4C3)CC2)sc1C(=O)c1c(F)cccc1F (mixture of isomers) | 0.41 |
| Nc1nc(NC2CCN(C(=O)c3ccc(Br)cc3)C2)sc1C(=O)c1c(F)cccc1F (stereo not drawn) | 1.89 |
| CN1CCN(S(=O)(=O)N2CCC(Nc3nc(N)c(C(=O)c4c(F)cccc4F)s3)CC2)CC1 | 1.08 |
| Nc1nc(NC2CCN(S(=O)(=O)CCc3ccccn3)CC2)sc1C(=O)c1c(F)cccc1F | 0.56 |

# returns recorded log10(Ki) (system: CDK2/Cyclin A (Homo sapiens, UniProt P24941)) for CC(=O)Nc1ccc(S(=O)(=O)N2CCCC(Nc3nc(N)c(C(=O)c4c(F)cccc4F)s3)C2)cc1 (stereo not drawn)
2.68

Again, but for CC(C)NCCOc1ccc(S(=O)(=O)N2CCC(Nc3nc(N)c(C(=O)c4c(F)cccc4F)s3)CC2)cn1 [Example H19, Hydrochloride Salt]
0.18

Again, but for CN(C)S(=O)(=O)N1CCC(Nc2nc(N)c(C(=O)c3c(F)cccc3F)s2)CC1 [Example E1]
1.15

Again, but for CN1CCC[C@@H](COc2ccc(S(=O)(=O)N3CCC(Nc4nc(N)c(C(=O)c5c(F)cccc5F)s4)CC3)cn2)C1 (stereo in doubt)
0.04

Again, but for `CN1CCN(CCCS(=O)(=O)N2CCC(Nc3nc(N)c(C(=O)c4c(F)cccc4F)s3)CC2)CC1`
0.89

Again, but for CN1CCN(Cc2ccc(S(=O)(=O)N3CCC(Nc4nc(N)c(C(=O)c5c(F)cccc5F)s4)CC3)cc2)CC1 [Example J7, Hydrochloride Salt]
0.28

Again, but for C[C@@H](NCCC(=O)N1CCC(Nc2nc(N)c(C(=O)c3c(F)cccc3F)s2)CC1)c1ccccc1 [Example U1, Trifluoroacetic Acid Salt]
1.32

Again, but for `Nc1nc(NC2CCN(S(=O)(=O)CCCSc3ccncc3)CC2)sc1C(=O)c1c(F)cccc1F`
0.45

Again, but for Nc1nc(NC2CCN(S(=O)(=O)c3ccc(N4CCC[C@H]4CO)nc3)CC2)sc1C(=O)c1c(F)cccc1F [Example G14, Trifluoroacetic Acid Salt]
-0.30

Again, but for `Nc1nc(NC2CCN(S(=O)(=O)CCCN3CCSCC3)CC2)sc1C(=O)c1c(F)cccc1F`
0.59

Again, but for CN(C)CCc1ccc(S(=O)(=O)N2CCC(Nc3nc(N)c(C(=O)c4c(F)cccc4F)s3)CC2)cn1 [Example N11, TFA Salt]
0.20

Provenance of the data: patent US20050101595A1
